- studySystem: TFEB (Homo sapiens, UniProt P19484)
- Sequence (P19484 whole entry): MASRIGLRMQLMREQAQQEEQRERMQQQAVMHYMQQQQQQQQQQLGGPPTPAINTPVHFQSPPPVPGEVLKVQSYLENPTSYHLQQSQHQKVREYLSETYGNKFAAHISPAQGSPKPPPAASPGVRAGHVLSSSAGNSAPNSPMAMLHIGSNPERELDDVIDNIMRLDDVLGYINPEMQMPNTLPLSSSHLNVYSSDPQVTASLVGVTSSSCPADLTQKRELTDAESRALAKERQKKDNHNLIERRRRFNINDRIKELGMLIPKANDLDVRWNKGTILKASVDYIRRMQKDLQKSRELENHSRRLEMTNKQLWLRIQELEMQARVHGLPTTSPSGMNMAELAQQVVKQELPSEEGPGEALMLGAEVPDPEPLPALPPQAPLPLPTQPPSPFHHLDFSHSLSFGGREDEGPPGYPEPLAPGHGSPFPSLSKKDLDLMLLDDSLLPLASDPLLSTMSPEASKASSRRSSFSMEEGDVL
pKd: −log10 of the molar value.
outcomeMeasure: pKd

In [3]: df
Out[3]:
                                 itemsmiles  measured
0  C=C[C@]1(C)CC[C@@H](C(=C)C)C[C@H]1C(=C)C      4.08
